- measurementTarget: Transcription factor p65 (Homo sapiens)
- assaySummary: Inhibition of NF-kappaB DNA binding by EMSA
recordedMetric: IC100 (µM)

1. C[C@H]1C(=O)O[C@H]2C/C(CO)=C/CC/C(CO)=C/C[C@@H]21 : 300
2. C=C1C(=O)O[C@@H]2C[C@@]3(C)[C@H](OC(C)=O)CC[C@](O)(COC(=O)C(C)C)[C@@H]3C[C@H]12 : 100
3. C=C(C)C(=O)O[C@@H]1/C=C(/C=O)CCCC(=C)[C@H](O)[C@H]2OC(=O)C(=C)[C@@H]21 : 5
4. C=C1C(=O)O[C@@H]2/C=C(\COC(=O)C(C)C)CC/C=C(\CO)[C@H](O)C[C@@H]12 : 100
5. CC[C@@H](C)[C@@]1(O)O[C@H]2C[C@@]3(C)OC(=CC3=O)/C(COC(C)=O)=C\[C@H]3OC(=O)[C@@]1(C)C23 (stereo partly drawn) : 5
6. C=C1C(=O)O[C@@H]2/C=C(/CO)C3=CC(=O)[C@@](C)(C[C@H](OC(=O)/C(C)=C\C)[C@@H]12)O3 : 5
7. C=C1C(=O)O[C@@H]2/C=C(/C)C3=CC(=O)[C@@](C)(C[C@@H](OC(=O)/C(C)=C\C)[C@@H]12)O3 : 5
8. C=C1C(=O)O[C@@H]2C[C@H](C)C3=C(C[C@H]12)[C@@H](C)CC3=O : 20
